- testContext: 333 K; 101.33 kPa; Liquid; transient hot wire

compound	outputUnit	thermal conductivity
CCCCCC[n+]1ccn(C)c1.O=S(=O)([N-]S(=O)(=O)C(F)(F)F)C(F)(F)F	W/m/K	0.125
CCCC[n+]1ccn(C)c1.O=S(=O)([N-]S(=O)(=O)C(F)(F)F)C(F)(F)F	W/m/K	0.125
CCCCCCCCCCCCCC[P+](CCCCCC)(CCCCCC)CCCCCC.[Cl-] [trihexyl(tetradecyl)phosphonium chloride]	W/m/K	0.157
CCCCCCCCn1cc[n+](C)c1.O=S(=O)([N-]S(=O)(=O)C(F)(F)F)C(F)(F)F	W/m/K	0.126
CCCCCCCCCCn1cc[n+](C)c1.O=S(=O)([N-]S(=O)(=O)C(F)(F)F)C(F)(F)F	W/m/K	0.128
CCn1cc[n+](C)c1.O=S(=O)([N-]S(=O)(=O)C(F)(F)F)C(F)(F)F	W/m/K	0.129
CCCC[N+]1(C)CCCC1.FC(F)(F)C(F)(F)[P-](F)(F)(F)(C(F)(F)C(F)(F)F)C(F)(F)C(F)(F)F	W/m/K	0.105
CCCCCCCCCCCCCC[P+](CCCCCC)(CCCCCC)CCCCCC.O=S(=O)([N-]S(=O)(=O)C(F)(F)F)C(F)(F)F	W/m/K	0.141
CCOS(=O)(=O)[O-].CCn1cc[n+](C)c1 [1-ethyl-3-methylimidazolium ethyl sulfate]	W/m/K	0.179
CCCCn1cc[n+](C)c1.O=S(=O)([O-])C(F)(F)F [1-butyl-3-methylimidazolium trifluoromethanesulfonate]	W/m/K	0.144
